System: PC-3 prostate
Protocol summary: NCI-60 one-dose screen, 48 h
Protocol conditions: 10 µM unless noted
The panel holds about 83,000 compounds, 20% with a hit somewhere; the sample as a whole holds those more often. Activity calls are given as the source filed them. Rule for the calls: active = growth percent below 10; inactive = the rest.
Pick one and only one: 1 = active, -1 = inactive

Recorded results for 8 molecules are shown here.
{"Molecule": "C=C(C)C(=O)O[C@H]1C[C@@]2(C)OC(=CC2=O)/C(CO)=C\\[C@H]2OC(=O)C(=C)[C@H]12", "Category label": 1}
{"Molecule": "CCCCCc1ccc(S(=O)(=O)N(C(C)=O)c2cccc(-c3csc(N(CCN4CCN(C)CC4)C(C)=O)n3)c2)cc1", "Category label": -1}
{"Molecule": "COc1cc(/C=C/C(=O)c2ccc(N3CCN(C)CC3)cc2)ccc1F", "Category label": -1}
{"Molecule": "COc1ccc2c(ccn2C(=O)N2c3ccccc3Sc3ccccc32)c1", "Category label": -1}
{"Molecule": "COc1cnc2c(c1)C(=O)c1c-2n(CCCNCC2CC2)c(=O)c2cc(F)ccc12", "Category label": 1}
{"Molecule": "CN(C)CCn1c2ccc(N)cc2c2nc3ccccc3nc21", "Category label": -1}
{"Molecule": "Cn1c(SC(C(=O)Nc2ccc(F)cc2)c2ccccc2)nc2ccccc2c1=O (stereo not given)", "Category label": -1}
{"Molecule": "COc1ccc(NC(=O)[C@H](C)N)cc1C(=O)Nc1cccc(-c2cc(=O)c3c(OC)c(OC)c(OC)cc3o2)c1", "Category label": -1}

[ask] So what was the verdict on "Cc1cc(O)c2c(c1)C(=O)C(c1c(C)cc3c(c1O)C(=O)C=CC3=O)=CC2=O" in this test?
[reply] -1

[ask] # lookup: test call for "CCn1c2ccc(/C=N/OCCCN(C)C)cc2c2cc(/C=N/OCCCN(C)C)ccc21"
[reply] -1

[ask] Which outcome was assigned to "NS(=O)(=O)c1ccc(Nc2nc(N/N=C/c3ccc([N+](=O)[O-])cc3)nc(Nc3ccccc3)n2)cc1" in this test?
[reply] -1

[ask] Could you kindly confirm the outcome this assay logged for "O=C(Nc1cccc(Cl)c1)Nc1nc2ccc([N+](=O)[O-])cc2s1" ?
[reply] 1

[ask] # fetch the recorded call for "O=C(NNc1nc2cc(F)cc(F)c2n2cccc12)c1ccncn1" here
[reply] -1

[ask] Each molecule tested received a call. Report the one for "NC(=S)N/N=C(/C=C/c1cn(-c2ccccc2)nc1-c1ccc(Cl)cc1)c1cc2ccccc2oc1=O" .
[reply] -1

[ask] Which result was noted for this molecule in the test: "O=C(Cn1cc(CN2C(=O)c3ccc([N+](=O)[O-])cc3C2=O)nn1)Nc1ccc(F)cc1Cl"
[reply] -1

[ask] Identify the outcome logged in this assay for the molecule shown: "N=c1c2cc(-c3ccccc3)oc2ncn1/N=C/c1ccccc1"
[reply] -1

[ask] What classification did "CC(C)N=C(N/C(N)=N/c1nc2ccccc2s1)NC(C)C" end up with in this test?
[reply] -1

[ask] Which outcome was entered for the molecule "COc1ccc(CCN2C(=O)CSC2=S)cc1OC" in this test?
[reply] -1

[ask] Tell me the assay call for "CC(C)SC1=NC(=C(C(=N1)NC2=ClC=CC=C2)C#N)C3=CC=CC=C3" please.
[reply] -1

[ask] Hi, do you know how "Oc1ccc(CSc2nnc(-c3ccccc3)o2)c2cccnc12" came out in this test?
[reply] -1

[ask] Look up the recorded call for "COc1cccc(/C=C/C(=O)c2ccc(NC(=O)COc3cccc4cccnc34)cc2)c1" in this test.
[reply] -1

[ask] Please let me know the test result on file for "COc1ccc2c(C3=C(c4cn(C)c5ccccc45)C(=O)NC3=O)coc2c1" .
[reply] -1

[ask] Recorded test outcome, item "COc1cnc2c(c1)C(=O)c1c-2n(CCCn2ccnc2)c(=O)c2cc(OC)c(OC)cc12"
[reply] 1

[ask] # outcome recorded in this test, key = "COc1ccc(S(=O)(=O)NCCCNc2nccc(-n3cnc4ccccc43)n2)cc1"
[reply] -1

[ask] Please share the test call associated with "O=C1Nc2ccc(Cl)cc2/C1=C/c1ccc(OCc2ccc(F)cc2)cc1" .
[reply] -1

[ask] GET /call?item= "IP(CCCCCCCCCCSc1n(Cc2ccc3ccccc3c2)c(-c2ccccc2)c(-c2ccccc2)[n+]1Cc1ccc2ccccc2c1)(c1ccccc1)(c1ccccc1)c1ccccc1" returns the recorded outcome of this test.
[reply] 1

[ask] # fetch the recorded call for CCN1C(=O)N(CC)C2SC(N/N=C/c3ccccc3F)=NC21 (stereo not given) here
[reply] -1

[ask] Entry "CCn1c2ccc(/C=N/NS(=O)(=O)CCN(C)C)cc2c2cc(/C=N/NS(=O)(=O)CCN(C)C)ccc21" : call = ?
[reply] -1

[ask] So what was the verdict on CS(=O)c1nccc(-c2c(-c3ccc(F)c(OCc4ccccc4)c3)nc3sccn23)n1 (stereo not given) in this test?
[reply] -1

[ask] GET /call?item= "COc1cc(-c2nc(SCc3ccc(C)cc3)[nH]c(=O)c2C#N)ccc1OCc1ccccc1" returns the recorded outcome of this test.
[reply] -1

###

System: UACC-257 melanoma
Protocol summary: NCI-60 one-dose screen, 48 h (100 = growth as untreated, 0 = no growth, -100 = all killed)
Protocol conditions: 10 µM
Procedure: Cells are grown in 96 well plates and exposed to the test compound for 48 hours. Compounds are tested at a single concentration, which is 10^-5 M for most compounds. The reported endpoint is percent growth (GI% or GIPRCNT), where numbers from 0 - 100% represent growth inhibition, and numbers from -100% - 0 represent cell death. For example, a value of 40 represents 60% growth inhibition. A value of 0 means no net growth occurred over the course of the experiment. […]
About 83,000 compounds went through this panel and 20% of them were active in at least one assay; those are over-represented in the sample as a whole.
Measurement name: growth (%)
Expressed in %, but write only the number.

{"Molecule": "CN(c1ccc(F)cc1)S(=O)(=O)c1ccc(-c2cnc(C3CC3)o2)cc1", "growth (%)": 70.9}
{"Molecule": "Oc1ccc(CSc2nnc(-c3ccc(Br)cc3)o2)c2cccnc12", "growth (%)": 29.7}
{"Molecule": "O=C1c2c(c3c4cccnc4[nH]c3c3ccc4ccccc4c23)C(=O)N1CCN1CCCCC1", "growth (%)": 94}

Lab note: next molecule to report on.
Hey, UACC-257 melanoma data for "O=C(NNc1nc2cc(F)c(F)cc2n2cccc12)c1ccncn1" : growth came out at 15.7

###

Tested on: NCI-H226 lung
Protocol summary: NCI-60 one-dose screen, 48 h (100 = growth as untreated, 0 = no growth, -100 = all killed)
Protocol conditions: 10 µM unless noted
Description: Growth inhibition of the NCI-H226 human Non-Small Cell Lung tumor cell line is measured as a screen for anti-cancer activity. Cells are grown in 96 well plates and exposed to the test compound for 48 hours. Compounds are tested at a single concentration, which is 10^-5 M for most compounds. The reported endpoint is percent growth (GI% or GIPRCNT), where numbers from 0 - 100% represent growth inhibition, and numbers from -100% - 0 represent cell death. […]
This is part of a sample that, as a whole, favours compounds with a hit. Of some 83,000 tested, about 20% had one in any assay. Active and inactive are the calls of the source. How the source made its calls: active means growth percent below 10; inactive means the rest.
Entries and their measured growth follow.

Consider the worked cases shown below.
{"Structure smiles": "ClC(Cl)c1nc(-c2cccs2)n2nc(-c3ccccc3)cc2n1", "growth": "82.6% (inactive)"}
{"Structure smiles": "CN1CCN(c2nc(-c3csc(-c4ccncc4)n3)cc3ccccc23)CC1", "growth": "98.1% (inactive)"}

Value of growth reported for the compound "Cn1cc(-c2nn3cc(-c4cccnc4)nc3s2)c2cc(F)ccc21" is 75% (inactive)

// growth value for "Oc1ccccc1-c1nnc(SCc2ccc(O)c3ncccc23)o1" : 67.5% (inactive)

Value of growth reported for the compound "O=C(c1ccc(O)cc1)[C@@H]1[C@@H]2CCCN2[C@@]2(C(=O)N(C(=O)c3ccc(F)cc3)c3ccccc32)[C@H]1c1ccc(F)cc1" is 94.3% (inactive)

###

System: SK-MEL-28 melanoma
Protocol summary: NCI-60 one-dose screen, 48 h (100 = growth as untreated, 0 = no growth, -100 = all killed)
Protocol conditions: 10 µM unless noted
This is part of a sample that, as a whole, favours compounds with a hit. Of some 83,000 tested, about 20% had one in any assay.
Measurement name: growth (%)
State just the number; it will be interpreted in %.

{"Compound": "Cc1ccccc1/C=C/c1nn2c(-c3ccoc3C)nnc2s1", "Unit spec": "%", "Reported result": 94.9}

The compound listed as "Cc1occc1-c1nc2s/c(=C\c3cn(-c4ccccc4)nc3-c3ccccc3)c(=O)n2n1" has a reported growth of 101

Summary for this compound, Nc1nc(N)c2c(n1)NC(c1ccccc1)CC(c1ccc(Nc3nc(NCCO)nc(Nc4ccc(Cl)cc4)n3)cc1)=N2 (stereo not drawn) : growth is 109

GET /value?item= "O=C(NCCCNc1cc(-c2cn(-c3ccccc3)nc2-c2cccc(O)c2)ccn1)Nc1cccc(C(F)(F)F)c1" &field=growth returns -12.1

// growth value for "O=C(NNc1nc2cc(F)c(F)cc2n2cccc12)c1ccncn1" : 29.4
